Where do these numbers come from? They come from patent US20200109117A1.

Test Method Notes: Solubility in distilled water and normal saline, visual inspection and HPLC
Type: physicochemical
Condition Description: distilled water, water, solvent DW (distilled water); read-out: Solubility in NS and DW
Each item that follows carries a reported solubility.

- Molecule: "Cc1cccc(Nc2ccccc2C(=O)OC[n+]2cccc(C(=O)N(C)C)c2)c1C"
  solubility / µg/mL: 390
- Molecule: "CNC(=O)c1ccc[n+](COC(=O)c2ccccc2Nc2cccc(C)c2C)c1 [MFA-MeNIC, MFA- N-Methylnicotinamide]"
  solubility / µg/mL: 460
- Molecule: "Cc1cccc(Nc2ccccc2C(=O)OC[n+]2cccc(C(N)=O)c2)c1C [MFA-NIC, MFA-Nicotinamide]"
  solubility / µg/mL: 280

====

Test Method Notes: Solubility in distilled water and normal saline, visual inspection and HPLC
Format: physicochemical
Condition Description: water; analogs compared with parent MFA

- Compound: "Cc1cccc(Nc2ccccc2C(=O)OC[n+]2cccc(C(N)=O)c2)c1C [MFA-NIC, MFA-Nicotinamide]"
  Aqueous solubility on visual inspection: "significantly higher"
- Compound: "CNC(=O)c1ccc[n+](COC(=O)c2ccccc2Nc2cccc(C)c2C)c1 [MFA-MeNIC, MFA- N-Methylnicotinamide]"
  Aqueous solubility on visual inspection: "significantly higher"
- Compound: "Cc1cccc(Nc2ccccc2C(=O)OC[n+]2cccc(C(=O)N(C)C)c2)c1C"
  Aqueous solubility on visual inspection: "significantly higher"

====

Test Method Notes: Solubility in distilled water and normal saline, visual inspection and HPLC
Format: physicochemical
Condition Description: normal saline, saline or isotonic, solvent NS (normal saline); read-out: Solubility in NS and DW

- Compound: "Cc1cccc(Nc2ccccc2C(=O)OC[n+]2cccc(C(N)=O)c2)c1C [MFA-NIC, MFA-Nicotinamide]"
  solubility [µg/mL]: 100
- Compound: "CNC(=O)c1ccc[n+](COC(=O)c2ccccc2Nc2cccc(C)c2C)c1 [MFA-MeNIC, MFA- N-Methylnicotinamide]"
  solubility [µg/mL]: 600
- Compound: "Cc1cccc(Nc2ccccc2C(=O)OC[n+]2cccc(C(=O)N(C)C)c2)c1C"
  solubility [µg/mL]: 720
